System: HCC1937
PROTOCOL NOTES: relative cell viability, compound + erastin, vs DMSO (fraction of DMSO control); higher = less growth inhibition
CONDITION SET: 72 h
# maps each entry to its relative cell viability
No unit in the answer, please; the number alone is enough.

Observe how each entry below is paired with its result.
>  <COMPOUND>
N=C(N)NCCC(=O)O [3-Guanidinopropionic Acid] + CCOc1ccccc1-n1c(C(C)N2CCN(C(=O)COc3ccc(Cl)cc3)CC2)nc2ccccc2c1=O [erastin]

>  <relative cell viability>
0.714

$$$$
>  <COMPOUND>
CCCCCCS(=O)(=O)NC(=O)c1ccc(CSCc2ccc(-c3ccccc3)cc2)cc1 + CCOc1ccccc1-n1c(C(C)N2CCN(C(=O)COc3ccc(Cl)cc3)CC2)nc2ccccc2c1=O [erastin]

>  <relative cell viability>
0.705

$$$$

Give its relative cell viability value. Item: CCCCCCCCCCCCCCOc1ccc(C(=O)O)o1 + CCOc1ccccc1-n1c(C(C)N2CCN(C(=O)COc3ccc(Cl)cc3)CC2)nc2ccccc2c1=O [erastin] 0.56

---

# maps each entry to its relative cell viability
System: HCC1937
PROTOCOL NOTES: relative cell viability, compound + erastin, vs DMSO (fraction of DMSO control); higher = less growth inhibition
CONDITION SET: 72 h
Counter-ions that a name gives are not always drawn.

>  <COMPOUND>
CCCc1c(-c2ccccc2)[nH]n(-c2ccccn2)c1=O [APX-115 free base] + CCOc1ccccc1-n1c(C(C)N2CCN(C(=O)COc3ccc(Cl)cc3)CC2)nc2ccccc2c1=O [erastin]

>  <VALUE>
0.615

$$$$
>  <COMPOUND>
O=C(c1ccc(NS(=O)(=O)c2cccc3cccnc23)cc1)N1CCN(CC2CC2)CC1 [Mitapivat] + CCOc1ccccc1-n1c(C(C)N2CCN(C(=O)COc3ccc(Cl)cc3)CC2)nc2ccccc2c1=O [erastin]

>  <VALUE>
0.596

$$$$
>  <COMPOUND>
N[C@@H](Cc1c[nH]cn1)C(=O)O [histidine] + CCOc1ccccc1-n1c(C(C)N2CCN(C(=O)COc3ccc(Cl)cc3)CC2)nc2ccccc2c1=O [erastin]

>  <VALUE>
0.592

$$$$

// next entry
Give its relative cell viability value. Item: O=P(O)(O)OC(CO)CO [β-Glycerol phosphate disodium salt pentahydrate] + CCOc1ccccc1-n1c(C(C)N2CCN(C(=O)COc3ccc(Cl)cc3)CC2)nc2ccccc2c1=O [erastin] 0.614

---

Tested on: HCC1937;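 also: viability read by CCK-8 kit in 96-well plates, part of a combination screen pairing lipid-metabolism-targeting compounds with erastin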
PROTOCOL NOTES: relative cell viability, compound + erastin, vs DMSO (fraction of DMSO control); higher = less growth inhibition
CONDITION SET: 72 h
# maps each entry to its relative cell viability
No unit in the answer, please; the number alone is enough.

Observe how each entry below is paired with its result.
>  <COMPOUND>
COc1ccc(-c2cc(=O)c3c(O)c(OC)c(O)cc3o2)cc1OC [Eupatilin] + CCOc1ccccc1-n1c(C(C)N2CCN(C(=O)COc3ccc(Cl)cc3)CC2)nc2ccccc2c1=O

>  <relative cell viability>
0.431

$$$$
>  <COMPOUND>
CCc1ccc(N(CC(C)C)S(=O)(=O)c2ccc(OCC3CCOCC3)c(CO)c2)cc1 + CCOc1ccccc1-n1c(C(C)N2CCN(C(=O)COc3ccc(Cl)cc3)CC2)nc2ccccc2c1=O

>  <relative cell viability>
0.508

$$$$
>  <COMPOUND>
Cc1nc(-c2nc(-c3ccc(OC(F)(F)F)cc3)no2)nn1Cc1cccc(N2CCC(S(C)(=O)=O)CC2)c1 + CCOc1ccccc1-n1c(C(C)N2CCN(C(=O)COc3ccc(Cl)cc3)CC2)nc2ccccc2c1=O

>  <relative cell viability>
0.647

$$$$

// next entry
Give its relative cell viability value. Item: O=C(CN1CCN(C(=O)c2ccco2)CC1)Nc1cc(C(F)(F)F)ccc1Cl + CCOc1ccccc1-n1c(C(C)N2CCN(C(=O)COc3ccc(Cl)cc3)CC2)nc2ccccc2c1=O 0.638
